The measured values listed here are drawn from patent US7781591B2.

experimental_system: purified recombinant full length PKC theta (Panvera, P2996) (Homo sapiens)
Construct: purified recombinant full length PKC theta (Panvera, P2996)
Sequence (Q04759 whole entry): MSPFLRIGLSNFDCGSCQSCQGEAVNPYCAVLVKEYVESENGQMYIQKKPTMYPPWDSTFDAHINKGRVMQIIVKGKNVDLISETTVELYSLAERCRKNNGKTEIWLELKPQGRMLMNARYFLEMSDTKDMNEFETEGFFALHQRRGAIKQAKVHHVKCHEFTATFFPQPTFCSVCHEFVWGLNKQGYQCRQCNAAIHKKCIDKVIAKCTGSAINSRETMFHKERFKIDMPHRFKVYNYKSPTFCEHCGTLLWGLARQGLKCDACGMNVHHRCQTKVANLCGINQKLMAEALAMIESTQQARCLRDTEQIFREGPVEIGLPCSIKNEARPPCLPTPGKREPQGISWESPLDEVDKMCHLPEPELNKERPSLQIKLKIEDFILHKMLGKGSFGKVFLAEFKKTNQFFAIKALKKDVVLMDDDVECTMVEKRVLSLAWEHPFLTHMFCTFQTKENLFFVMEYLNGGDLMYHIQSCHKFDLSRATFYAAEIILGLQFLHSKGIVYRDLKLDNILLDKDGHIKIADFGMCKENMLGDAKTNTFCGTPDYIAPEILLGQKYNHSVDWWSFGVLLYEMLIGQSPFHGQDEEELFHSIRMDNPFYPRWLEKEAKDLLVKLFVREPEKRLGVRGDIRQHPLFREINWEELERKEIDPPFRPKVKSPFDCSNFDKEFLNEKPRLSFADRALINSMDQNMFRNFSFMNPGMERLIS
measurement_notes: Radioactive kinase assay for inhibition of full length (FL) PKCθ
condition_notes: average value

| structure_smiles | output_unit | relation_symbol | IC50 |
| --- | --- | --- | --- |
| N#Cc1cncc(-c2cccc(OCc3ccccc3)c2)c1Nc1ccc2[nH]ccc2c1 | nM | = | 50 |
| Cc1cccc(-c2cccc(-c3cncc(C#N)c3Nc3ccc4[nH]ccc4c3)c2)c1 | nM | = | 290 |
| N#Cc1cncc(-c2cccc(-c3ccc(Cl)cc3)c2)c1Nc1ccc2[nH]ccc2c1 | nM | = | 50 |
| COCCOc1cc(-c2cncc(C#N)c2Nc2ccc3[nH]nnc3c2)ccc1OC | nM | = | 37400 |
| N#Cc1cncc(-c2cccc(OCCN3CCOCC3)c2)c1Nc1ccc2cc[nH]c2c1 | nM | = | 2630 |
| COCCOc1ccc(-c2cncc(C#N)c2Nc2ccc3ncsc3c2)cc1OC | nM | = | 15000 |
| CN(C)C(=O)c1ccc(-c2cccc(-c3cncc(C#N)c3Nc3ccc4[nH]ccc4c3)c2)cc1 | nM | = | 340 |
| N#Cc1cncc(-c2ccccc2-c2ccc(Cl)cc2)c1Nc1ccc2[nH]ccc2c1 | nM | = | 1920 |
| N#Cc1cncc(-c2ccccc2-c2ccsc2)c1Nc1ccc2[nH]ccc2c1 | nM | = | 1330 |
| CC(=O)Nc1ccc(-c2cccc(-c3cncc(C#N)c3Nc3ccc4[nH]ccc4c3)c2)cc1 | nM | = | 120 |
| N#Cc1cncc(-c2cccc(-c3cccc(N)c3)c2)c1Nc1ccc2[nH]ccc2c1 | nM | = | 140 |
| COc1ccc(-c2cncc(C#N)c2Nc2cccc3[nH]ccc23)cc1OC | nM | = | 40 |
| COCCOc1cc(-c2cncc(C#N)c2Nc2ccc3ncsc3c2)ccc1OC | nM | > | 20000 |
| N#Cc1cncc(-c2cccc(-c3ccc(C(=O)N4CCOCC4)cc3)c2)c1Nc1ccc2[nH]ccc2c1 | nM | = | 1140 |
| COCCOc1cc(-c2cncc(C#N)c2Nc2ccc3[nH]c(C)cc3c2)ccc1OC | nM | = | 550 |
| N#Cc1cncc(-c2cccc(OCCCl)c2)c1Nc1cccc2[nH]ccc12 | nM | = | 20 |
| COCCOc1ccc(-c2cncc(C#N)c2Nc2ccc3[nH]c(C)cc3c2)cc1OC | nM | = | 320 |
